Catalogue of molecules with associated melting point

molecule: CC(C)=C1CCCP1(=O)c1ccccc1 (stereo unspecified)
melting point: 143 to 146 °C

molecule: CCC1Cc2cc(OCC#N)c(Cl)c(Cl)c2C1=O (stereo unspecified)
melting point: 139 to 141 °C

molecule: COc1cc2cnnc(N3CCC(CC(C)O)CC3)c2cc1OC (stereo unspecified)
melting point: 154 to 156 °C

molecule: Cc1cccc(C2SC3(CCN(C(=O)Oc4ccccc4)CC3)c3ccccc32)c1 (stereo unspecified)
melting point: 154 to 157 °C

molecule: CSC1=Nc2ccccc2C2=NCC(CC3CNCCC34CCCCC4)N12 (stereo unspecified)
melting point: 114 to 115 °C

molecule: COc1cc(N(C)C(=O)CN2CCN(C)CC2)ccc1N
melting point: 115 to 118 °C

molecule: Cc1c(Br)c(C(F)(F)F)nn1C(C)C(=O)N(C)C (stereo unspecified)
melting point: 86 to 88 °C

molecule: Cc1cc(C(C)(C)C)cc(C)c1C(=O)O
melting point: 160 to 164 °C

molecule: CCCc1nnc(N2CCN(c3ccc(N4CC(CNC(C)=O)OC4=O)cc3F)CC2)s1 (stereo unspecified)
melting point: 208 to 209 °C

molecule: CCCCC(CNC(=O)Nc1c(C(C)C)cccc1C(C)C)c1ccc2c(c1)OCO2 (stereo unspecified)
melting point: 153 to 155 °C

molecule: O=C(c1cc2cc3[nH]c(=O)oc3cc2[nH]1)N1CCC(Cc2ccccc2)CC1
melting point: 270 to 271 °C

molecule: ON=C1CCC(C2CCCC2)=C1c1cccc(O)c1
melting point: 207 to 209 °C

molecule: COc1cccc(-c2nn(C(C)c3oc4ccccc4c(=O)c3-c3ccccc3)c3ncnc(N)c23)c1 (stereo unspecified)
melting point: 176 to 178 °C

molecule: Cc1nc(Cn2c(NC3CCN(CCc4c(C)nc5sccn5c4=O)CC3)nc3ccccc32)cs1
melting point: 130 °C

molecule: Cc1ccc(C=CC#N)cc1C
melting point: 93.9 °C

molecule: CN(C)C(=O)c1cccc(C(=O)Nc2cccc3cc(Br)cnc23)c1
melting point: 157 °C

molecule: c1cnc2nc(-c3nccs3)ccc2c1
melting point: 160 to 165 °C

molecule: C#CCn1c(-c2ccccc2)nc(C#C)c(CC)c1=O
melting point: 134 to 136 °C

molecule: CCC[C@](CC=O)(CCc1ccccc1)OCOc1ccc(-c2ccccc2)cc1
melting point: 47 to 48.5 °C

molecule: CCCCOc1c(CNC(=O)OC(C)(C)C)n(CC(C)C)c(=O)c2ccc(CO)cc12
melting point: 153 to 154 °C

molecule: C#Cc1cccc(N2C(=O)c3ccc([N+](=O)[O-])cc3C2=O)c1
melting point: 257 to 259 °C
